Data origin, for the record: patent US9770439B2

Give measured Fold - Synergistic G-1a (L31V) for each item. Keep answers brief.
system: HCV replicon, genotype 1a L31V variant with leucine 31 changed to valine in the NS5A protein; type: cell-based; conditions: genotype 1a L31V replicon; test compound titrated with compound N47 fixed at 200 nM versus titrated singly

Worked examples follow.
COMPOUND	Fold - Synergistic G-1a (L31V)
COC(=O)N[C@H](C(=O)N1C2CC2CC[C@H]1c1ncc(-c2ccc(-c3ccc(-c4cnc([C@@H]5CCC6CC6N5C(=O)[C@@H](NC(=O)OC)C(C)C)[nH]4)cc3)cc2)[nH]1)C(C)C (stereo partly shown)	>100 Fold
COC(=O)N[C@H](C(=O)N1C(c2ncc(-c3ccc(-c4cc5cc(-c6c[nH]c([C@@H]7C[C@H]8C[C@H]8N7C(=O)[C@@H](NC(=O)OC)C7CCOCC7)n6)ccc5o4)cc3)[nH]2)C[C@H]2C[C@H]21)C1CCOCC1 (stereo partly shown)	<10 Fold
COC(=O)N[C@H](C(=O)CN1C(c2ncc(-c3ccc(C#Cc4ccc5c(ccc6[nH]c([C@@H]7C[C@H]8C[C@H]8N7C(=O)[C@@H](NC(=O)OC)C(C)C)nc65)c4)cc3)[nH]2)C[C@H]2C[C@H]21)C(C)C (stereo partly shown)	<10 Fold

# next compound below
Sample "COC(=O)N[C@H](C(=O)N1[C@@H]2C[C@@H]2C[C@H]1C(=O)Nc1ccc(C23CCC4C5CC6(c7ccc(NC(=O)[C@@H]8C[C@H]9C[C@H]9N8C(=O)[C@@H](NC(=O)OC)C(C)C)cc7)CC4C(C2)C(C6)C5C3)cc1)C(C)C" ; Fold - Synergistic G-1a (L31V) observed: <10 Fold

###

Give measured Fold - Synergistic G-1a (L31V) for each item. Keep answers brief.
tested on: HCV replicon, genotype 1a L31V variant with leucine 31 changed to valine in the NS5A protein; format: cell-based; settings: genotype 1a L31V replicon; test compound titrated with compound N47 fixed at 200 nM versus titrated singly

MOLECULE	DATA_VALUE
COC(=O)N[C@H](C(=O)N1[C@H]2C[C@@]2(C)C[C@H]1c1ncc(-c2ccc(-c3ccc(-c4cnc([C@@H]5C[C@@H]6C[C@@H]6N5C(=O)[C@@H](NC(=O)OC)C(C)C)[nH]4)cc3)cc2)[nH]1)C(C)C	>100 Fold
COC(=O)N[C@H](C(=O)N1C2C[C@@H]2C[C@H]1c1ncc(-c2ccc(C#Cc3ccc(-c4cnc([C@@H]5C[C@H]6C[C@H]6N5C(=O)[C@@H](NC(=O)OC)C(C)C)[nH]4)cc3)cc2)[nH]1)C(C)C (stereo partly drawn)	<10 Fold

# next molecule below
Sample CC[C@H]1CC[C@@H](c2ncc(-c3ccc(-c4ccc(-c5cnc([C@@H]6CC[C@H](CC)N6C(=O)[C@@H](NC(=O)OC)C(C)C)[nH]5)cc4)cc3)[nH]2)N1C(=O)C(NC(=O)OC)C(C)C (stereo partly drawn) ; Fold - Synergistic G-1a (L31V) observed: >100 Fold

###

test system: HCV replicon, genotype 1a L31V variant with leucine 31 changed to valine in the NS5A protein; type: cell-based; conditions: genotype 1a L31V replicon; test compound titrated with compound N47 fixed at 200 nM versus titrated singly
VALUE_KIND: Fold - Synergistic G-1a (L31V)

Hello, I would appreciate it if you could give Fold - Synergistic G-1a (L31V) for each entry below.
1. Cc1nc2cccc(-c3ncc(-c4ccc5nc([C@@H]6CCCN6C(=O)[C@@H](c6ccccc6)N(C)C)[nH]c5c4)o3)c2[nH]1
2. COC(=O)N[C@H](C(=O)N1C(c2ncc(-c3ccc(-c4ccc(-c5cnc([C@@H]6CCC7CC7N6C(=O)[C@@H](NC(=O)OC)C(C)C)[nH]5)cc4)cc3)[nH]2)CCC2CC21)C(C)C (some centres unmarked)
3. CN(C)[C@@H](C(=O)N1CCC[C@H]1C1=NC(c2ccc(OCc3ccc(-c4c[nH]c([C@@H]5CCCN5C(=O)[C@@H](c5ccccc5)N(C)C)n4)cc3)cc2)CN1)c1ccccc1 (some centres unmarked)
4. COC(=O)N[C@H](C(=O)N1[C@@H]2C[C@@H]2C[C@H]1c1ncc(-c2ccc(C#Cc3ccc(-c4cnc([C@@H]5C[C@H]6C[C@H]6N5C(=O)[C@@H](NC(=O)OC)C(C)C)[nH]4)cc3)cc2)[nH]1)C(C)C
5. COC(=O)N[C@H](C(=O)N1CCCC1c1ncc(C#Cc2ccc3cc(C#Cc4cnc([C@@H]5CCCN5C(=O)[C@@H](NC(=O)OC)C(C)C)[nH]4)ccc3c2)[nH]1)C(C)C (some centres unmarked)
6. COC(=O)N[C@H](C(=O)N1CCCC1c1nc2ccc(-c3ccc4cc(-c5ccc6nc([C@@H]7CCCN7C(=O)[C@@H](NC(=O)OC)C(C)C)[nH]c6c5)ccc4n3)cc2[nH]1)C(C)C (some centres unmarked)

1: >10 Fold; 2: >100 Fold; 3: <10 Fold; 4: <10 Fold; 5: >10 Fold; 6: >10 Fold

Hello, I would appreciate it if you could give Fold - Synergistic G-1a (L31V) for each entry below.
1. COC(=O)N[C@H](C(=O)N1C[C@@H](C)CC1c1ncc(-c2ccc(-c3ccc4cc(-c5cnc([C@@H]6C[C@H](C)CN6C(=O)[C@@H](NC(=O)OC)C(C)C)[nH]5)ccc4c3)cc2)[nH]1)C(C)C (some centres unmarked)
2. COC(=O)N[C@@H](C(=O)N1CCC[C@H]1c1nc2ccc(C3=NCC(c4ccc(N5CCOCC5)cc4)O3)cc2[nH]1)c1ccccc1 (some centres unmarked)
3. COC(=O)N[C@H](C(=O)N1C[C@H](C)C[C@H]1c1ncc(-c2ccc(-c3ccc4cc(-c5cnc([C@@H]6C[C@@H](C)CN6C(=O)[C@@H](NC(=O)OC)C(C)C)[nH]5)ccc4c3)cc2)[nH]1)C(C)C
4. COC(=O)N[C@@H](C(=O)N1CCCC1c1ncc(-c2ccc(-c3ccc(-c4cnc([C@@H]5CCCN5C(=O)[C@H]5CCCO5)[nH]4)cc3)cc2)[nH]1)c1ccccc1 (some centres unmarked)

<10 Fold
<10 Fold
<10 Fold
<10 Fold

Sample "CN(C)[C@H](C(=O)N1CCCC[C@H]1c1ncc(-c2ccc(-c3ccc(-c4cnc([C@@H]5CCCCN5C(=O)[C@@H](c5ccccc5)N(C)C)[nH]4)cc3)cc2)[nH]1)c1ccccc1" ; Fold - Synergistic G-1a (L31V) observed: <10 Fold
